systemName: CYP2C9 (Homo sapiens, UniProt P11712)
Construct: 0.1 mg/mL protein human liver microsomes (BD Gentest); tissue BD Gentest; host or cells: human liver microsomes
Sequence (P11712 whole entry): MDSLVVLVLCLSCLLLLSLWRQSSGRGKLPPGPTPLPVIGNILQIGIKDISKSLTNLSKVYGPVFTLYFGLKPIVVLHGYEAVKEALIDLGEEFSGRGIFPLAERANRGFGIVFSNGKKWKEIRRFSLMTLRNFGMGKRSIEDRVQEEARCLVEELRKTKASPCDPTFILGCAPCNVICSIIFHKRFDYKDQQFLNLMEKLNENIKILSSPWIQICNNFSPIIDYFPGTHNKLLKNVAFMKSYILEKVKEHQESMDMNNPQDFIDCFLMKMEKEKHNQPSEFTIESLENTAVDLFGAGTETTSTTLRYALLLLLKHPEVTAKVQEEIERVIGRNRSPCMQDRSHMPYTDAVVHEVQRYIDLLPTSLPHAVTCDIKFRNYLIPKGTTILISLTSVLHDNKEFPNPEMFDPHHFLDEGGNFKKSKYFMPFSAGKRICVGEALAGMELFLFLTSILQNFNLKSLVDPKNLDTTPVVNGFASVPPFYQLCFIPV
procedureDetails: Cocktail assay for CYPs in human liver microsomes: CYP2C9 (diclofenac 4′-hydroxylation)
Type: biochemical
condition: IC50 (nM) CYP2C9, human liver microsomes 0.1 mg/mL, 5 μM diclofenac, 10 min at 37° C., 6 concentrations up to 10 μM
List of IC50 values.
Value and unit, in that order.

>>> observed("C[C@H](c1ccc(F)cc1)n1cncc1CN1CCC(C#N)(c2ccccc2)CC1")
"2200 nM"
>>> observed("N#Cc1ccc(C2(n3cncc3CN3CCC(C#N)(c4ccc(F)cc4)CC3)CC2)cc1")
"5320 nM"

Field: next compound
Query block: Which IC50 value belongs to COC(=O)C1(c2ccccc2)CCN(Cc2cncn2[C@H](C)c2ccc(F)cc2)CC1 ?
Result block: 1390 nM

* * *

systemName: CYP3A4 (Homo sapiens, UniProt P08684)
Construct: 0.1 mg/mL protein human liver microsomes (BD Gentest); tissue BD Gentest; host or cells: human liver microsomes
Sequence (P08684 whole entry): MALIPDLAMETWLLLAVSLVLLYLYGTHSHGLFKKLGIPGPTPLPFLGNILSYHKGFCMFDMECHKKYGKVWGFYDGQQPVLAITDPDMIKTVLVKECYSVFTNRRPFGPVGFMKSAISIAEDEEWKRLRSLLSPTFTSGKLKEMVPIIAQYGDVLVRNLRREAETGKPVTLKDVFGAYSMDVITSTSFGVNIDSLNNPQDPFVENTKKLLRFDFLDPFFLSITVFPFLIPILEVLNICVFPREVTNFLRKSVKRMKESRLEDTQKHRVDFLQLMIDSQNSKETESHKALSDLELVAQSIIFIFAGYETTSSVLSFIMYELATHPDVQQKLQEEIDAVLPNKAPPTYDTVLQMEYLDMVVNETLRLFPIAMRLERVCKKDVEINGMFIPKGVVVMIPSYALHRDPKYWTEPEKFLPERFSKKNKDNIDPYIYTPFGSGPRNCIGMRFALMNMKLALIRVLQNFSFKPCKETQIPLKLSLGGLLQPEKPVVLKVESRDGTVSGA
procedureDetails: Cocktail assay for CYPs in human liver microsomes: CYP3A4 (midazolam 1′-hydroxylation)
Format: biochemical
condition: human liver microsomes 0.1 mg/mL, 2 μM midazolam, 10 min at 37° C., 6 concentrations up to 10 μM; read-out: IC50 (nM) CYP3A4
Lab note - cut at 20 nM for IC50: 1 if strictly below, 0 if not.

Solved cases below.
>>> classname("CC(c1ccccc1-c1ccc(F)cc1)n1cncc1CN1CCS(=O)(=O)CC1 (centres unmarked)")
0
>>> classname("C[C@H](c1ccc(C#N)cc1)n1cncc1CN1CCN(c2ccccc2)C(C(=O)N2CCOCC2)C1 (some centres unmarked)")
0
>>> classname("CC1CN(Cc2cncn2C(C)C2CCOCC2)CC(C)N1C(=O)C1(C)CC1 (centres unmarked)")
0

Query block: IC50 strictly < 20 nM for this compound? C[C@H](c1ccc(C#N)cc1)n1cncc1CN1CCC(c2nc3ccccc3o2)CC1
Result block: 0

Query block: IC50 strictly < 20 nM for this compound? CCOC(=O)CN1CCN(Cc2cncn2C(C)c2ccccc2-c2ccc(F)cc2)CC1 (centres unmarked)
Result block: 1

Query block: IC50 strictly < 20 nM for this compound? CC(C)C(C)n1cncc1CN1CCN(c2nc3ccccc3o2)CC1 (centres unmarked)
Result block: 1

Query block: IC50 strictly < 20 nM for this compound? CC1(C#N)CCN(Cc2cncn2Cc2nc3ccccc3s2)CC1
Result block: 0

Query block: IC50 strictly < 20 nM for this compound? CC(C)OCCn1cncc1CN1CCN(c2nc3ccccc3o2)CC1
Result block: 0

Query block: IC50 strictly < 20 nM for this compound? CC(C1CCOCC1)n1cncc1CN1CCN(c2nc3ccc(F)c(F)c3o2)CC1 (centres unmarked)
Result block: 1

Query block: IC50 strictly < 20 nM for this compound? C[C@H](c1ccc(F)cc1)n1cncc1CN1CCN(c2nc3ccccc3o2)CC1
Result block: 1

Query block: IC50 strictly < 20 nM for this compound? C[C@H](c1ccc(F)cc1)n1cncc1CN1CCN(Cc2cnc(N3CCOCC3)s2)C(=O)C1
Result block: 0

Query block: IC50 strictly < 20 nM for this compound? CCS(=O)(=O)CCc1cnc(N2CCN(Cc3cncn3[C@H](C)c3ccc(Cl)cc3)CC2)s1
Result block: 0

Query block: IC50 strictly < 20 nM for this compound? CC(C1CCOCC1)n1cncc1CN1CCN(c2nc3ccccc3o2)CC1 (centres unmarked)
Result block: 0

Query block: IC50 strictly < 20 nM for this compound? COCCN1CCN(Cc2cncn2C(C)c2ccccc2-c2ccc(F)cc2)CC1 (centres unmarked)
Result block: 1

Query block: IC50 strictly < 20 nM for this compound? Cc1noc(C2(C)CCN(Cc3cncn3[C@H](C)c3ccc(F)cc3)CC2)n1
Result block: 1
